TESTED ON: Griffonia simplicifolia lectin II (GSL-II) (Griffonia simplicifolia, UniProt Q41263)
Sequence (Q41263 entry or part of it): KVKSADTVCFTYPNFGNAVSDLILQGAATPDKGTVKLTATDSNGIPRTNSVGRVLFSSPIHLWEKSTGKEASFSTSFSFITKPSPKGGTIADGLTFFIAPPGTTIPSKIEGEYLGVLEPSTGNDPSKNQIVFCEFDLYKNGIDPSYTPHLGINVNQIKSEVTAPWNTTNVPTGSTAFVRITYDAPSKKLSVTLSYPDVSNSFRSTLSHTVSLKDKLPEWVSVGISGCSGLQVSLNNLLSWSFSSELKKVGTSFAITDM
TEST METHOD NOTES: Frontal affinity chromatography (FAC) on immobilized GSL-II lectin column
Type: binding
OBSERVATION TYPE: Kd
Entry format: amount then unit.

Please indicate Kd recorded for `CC(=O)N[C@H]1[C@@H](Oc2ccc([N+](=O)[O-])cc2)O[C@H](CO)[C@@H](O)[C@@H]1O`
7.14 µM
